assay_text: clinical
condition_info: human, tumor biopsy / plasma, oral
quantity_measured: Kp
Form rule: numeric answer, no unit written next to it.

# input What value of Kp has been recorded for this entry: CCCCCCCCCCCCCCCC(=O)NCCCC[C@@H](N)C(=O)NCCCNCCCCNCCCN [AMXT 1501, AMXT 1501 dicaprate]
# output 12
